- Experiment Description: 14-day repeat IV dose toxicity study with toxicokinetic evaluation on Day 1 and 14 in dogs
- Type: in vivo, beagle dogs
- Assay Setup: dog, in vivo, iv, 10 mg/kg/day, IV 10 mg/kg/day, male, Day 1, read-out: AUC0-∞ (converted)
Ends that are not written are not given here.
Measurement Name: AUC(0-inf)

Task: Read off the recorded AUC(0-inf) for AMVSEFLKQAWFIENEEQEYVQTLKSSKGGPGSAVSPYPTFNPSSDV-NH2 [Peptide 1]
Output: 3930 ng·h/mL

====

- Experiment Description: Clinical test in humans, three 30-min i.v. infusions 8 hours apart, plasma PK
- Format: in vivo
- Assay Setup: human, in vivo, iv, three 30-min i.v. infusions 8 h apart, 100 μg/kg each, mean, read-out: AUC0-t1
Ends that are not written are not given here.
Measurement Name: AUC (ng·h/mL)
A number alone suffices; assume ng·h/mL.

Task: Input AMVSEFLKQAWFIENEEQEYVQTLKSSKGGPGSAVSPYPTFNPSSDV-NH2 [Peptide 1] , output reported AUC.
Output: 993

====

- Experiment Description: Clinical test in humans, three 30-min i.v. infusions 8 hours apart, plasma PK
- Type: in vivo
- Assay Setup: human, in vivo, iv, 200 ug/kg, three 30-min i.v. infusions 8 h apart, 200 μg/kg each, GM, read-out: Global tmax
Ends that are not written are not given here.
Measurement Name: Tmax
Give the figure together with its unit, number first.

Task: Answer with the recorded Tmax for the substance listed here: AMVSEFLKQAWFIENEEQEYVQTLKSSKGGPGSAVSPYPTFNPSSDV-NH2 [Peptide 1]
Output: 2.57 h

====

- Experiment Description: 14-day repeat dose IV toxicity study with toxicokinetic evaluation on Day 1 and Day 14 in rats
- Assay type: in vivo, Wistar rats
- Assay Setup: rat, in vivo, iv, 10 mg/kg/day, IV 10 mg/kg/day, female, Day 14, read-out: T1/2
Ends that are not written are not given here.
Measurement Name: half-life (min)
Enter your answer as a number in min; do not include the unit.

Task: Tell me its half-life given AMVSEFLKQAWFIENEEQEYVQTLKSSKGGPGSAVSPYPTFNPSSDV-NH2 [Peptide 1] as the entry.
Output: 7.04

====

- Experiment Description: Clinical test in humans, three 30-min i.v. infusions 8 hours apart, plasma PK
- Assay type: in vivo
- Assay Setup: human, in vivo, iv, 140 ug/kg, three 30-min i.v. infusions 8 h apart, 140 μg/kg each, GM, read-out: AUC0-t1
Ends that are not written are not given here.
Measurement Name: AUC (ng·h/mL)
Just the number in ng·h/mL, nothing appended.

Task: Report AUC for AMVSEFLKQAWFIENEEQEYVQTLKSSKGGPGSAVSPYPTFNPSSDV-NH2 [Peptide 1]
Output: 1660

====

- Experiment Description: 14-day repeat dose IV toxicity study with toxicokinetic evaluation on Day 1 and Day 14 in rats
- Format: in vivo, Wistar rats
- Assay Setup: rat, in vivo, iv, 1 mg/kg/day, IV 1.0 mg/kg/day, female, Day 1, read-out: Vz
Ends that are not written are not given here.
Measurement Name: Vd (L/kg)
Numbers only here, please. The scale is L/kg.

Task: Given the substance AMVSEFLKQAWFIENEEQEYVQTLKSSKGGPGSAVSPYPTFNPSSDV-NH2 [Peptide 1] , write its reported Vd.
Output: 0.192

====

- Experiment Description: PK after single intravenous injection of Peptide 1 in male rats
- Set-up: species or system male Wistar (CRL: WI(Han)) rats
- Assay Setup: rat, in vivo, single IV 1.0 mg/kg, terminal elimination phase
- Protocol: Peptide 1 in blood samples collected from animals used in the studies (rat and dog) has been measured by an LC-MS/MS method. Analysis of samples collected in the pharmacokinetic study in rats was performed prior to validation of the method. […] Peptide 1 was quantifiable in all plasma samples in the study. […] Plasma samples obtained 60 minutes post dosing in Group 1 had plasma concentration of Peptide 1 below the limit of quantification.
Ends that are not written are not given here.
Measurement Name: AUC(0-inf) (µg·h/mL)
Kindly answer with a numeric value in µg·h/mL, unit omitted.

Task: Provide AUC(0-inf) value for the following substance: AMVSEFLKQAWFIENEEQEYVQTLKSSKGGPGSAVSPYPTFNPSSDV-NH2 [Peptide 1]
Output: 2.07
